Target: COX-1 (Homo sapiens)
Construct: platelets in whole blood contain a large amount of the COX-1 enzyme; endogenous in cells
Sequence (P23219 24-599): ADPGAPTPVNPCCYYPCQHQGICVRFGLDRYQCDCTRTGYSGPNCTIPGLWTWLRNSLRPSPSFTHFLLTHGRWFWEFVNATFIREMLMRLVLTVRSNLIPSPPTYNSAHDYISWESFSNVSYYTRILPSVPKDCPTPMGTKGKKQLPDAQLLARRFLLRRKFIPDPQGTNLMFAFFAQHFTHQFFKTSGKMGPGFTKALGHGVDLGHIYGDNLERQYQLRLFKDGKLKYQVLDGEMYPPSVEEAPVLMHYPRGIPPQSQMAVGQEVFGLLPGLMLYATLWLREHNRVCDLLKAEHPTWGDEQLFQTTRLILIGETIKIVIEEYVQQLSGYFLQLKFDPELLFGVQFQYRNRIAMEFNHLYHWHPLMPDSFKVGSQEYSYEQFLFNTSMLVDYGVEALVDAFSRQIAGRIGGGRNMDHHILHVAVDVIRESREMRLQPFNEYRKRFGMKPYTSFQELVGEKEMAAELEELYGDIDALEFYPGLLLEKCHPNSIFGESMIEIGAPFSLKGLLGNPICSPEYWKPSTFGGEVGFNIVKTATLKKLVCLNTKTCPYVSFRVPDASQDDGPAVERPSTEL
Experiment: Human whole blood assay: COX-1 (clotting-induced TxB2 production)
Conditions: clotting-induced TxB2, 1 hour at 37° C.
Listing of entries alongside the reported IC50.
# unit: µM | format: bare number

CS(=O)(=O)c1ccc(-c2sn[n+]([O-])c2-c2ccccc2)cc1
38

Record lookup: for COX-1 (Homo sapiens), what IC50 belongs to `CS(=O)(=O)c1ccc(-c2sn[n+]([O-])c2-c2ccc(F)cc2)cc1` ? 18

Record lookup: for COX-1 (Homo sapiens), what IC50 belongs to `CS(=O)(=O)c1ccc(-c2sn[n+]([O-])c2-c2cccc(F)c2)cc1` ? 88

Record lookup: for COX-1 (Homo sapiens), what IC50 belongs to `CS(=O)(=O)c1ccc(-c2sn[n+]([O-])c2-c2ccc(F)c(F)c2)cc1` ? 57
